PROTOCOL_SUMMARY: The drug is tested on WLS-240 corresponding to human gut metagenome with ENA study accession number: PRJEB37062 and ENA sample accession number: ERS12561773 for biotransformation under anaerobic condition. The drug concentrations were measured over 9 timepoints collected between 0 and 24 hours of incubation by liquid-chromatography-coupled mass spectrometry (LC–MS); further: call rule not given here
TEST_CONTEXT: 2 µM

>  <COMPOUND>
CCCN1C[C@H](CSC)C[C@@H]2c3cccc4[nH]cc(c34)C[C@H]21.CS(=O)(=O)O [PERGOLIDE MESYLATE]

>  <Bacterial Biotransformation>
Compound NOT metabolized

$$$$
>  <COMPOUND>
CC(N)C12CC3CC(CC(C3)C1)C2 (centres undefined) [RIMANTADINE]

>  <Bacterial Biotransformation>
Compound NOT metabolized

$$$$
>  <COMPOUND>
N#Cc1ccc2[nH]cc(CCCCN3CCN(c4ccc5oc(C(N)=O)cc5c4)CC3)c2c1 [VILAZODONE]

>  <Bacterial Biotransformation>
Compound metabolized

$$$$
>  <COMPOUND>
C[C@]12CCC(=O)C=C1[C@@H]1C[C@@H]1[C@H]1[C@@H]3[C@@H]4C[C@@H]4[C@@]4(CCC(=O)O4)[C@@]3(C)CC[C@@H]12 [DROSPIRENONE]

>  <Bacterial Biotransformation>
Compound metabolized

$$$$

====

TEST_CONTEXT: human gut metagenome, 24 h, 2 µM

>  <COMPOUND>
CCCN1C[C@H](CSC)C[C@@H]2c3cccc4[nH]cc(c34)C[C@H]21.CS(=O)(=O)O [PERGOLIDE MESYLATE]

>  <Bacterial Biotransformation>
Compound NOT metabolized

$$$$
>  <COMPOUND>
Clc1cccc(Cl)c1N=C1NCCN1 [CLONIDINE]

>  <Bacterial Biotransformation>
Compound NOT metabolized

$$$$
>  <COMPOUND>
CN1CCN(C2=Nc3ccccc3Oc3ccc(Cl)cc32)CC1.O=C(O)CCC(=O)O [LOXAPINE SUCCINATE]

>  <Bacterial Biotransformation>
Compound NOT metabolized

$$$$

====

PROTOCOL_SUMMARY: The drug is tested on WLS-098 corresponding to human gut metagenome with ENA study accession number: PRJEB37062 and ENA sample accession number: ERS12561754 for biotransformation under anaerobic condition. The drug concentrations were measured over 9 timepoints collected between 0 and 24 hours of incubation by liquid-chromatography-coupled mass spectrometry (LC–MS)
TEST_CONTEXT: 2 µM
READOUT_LABEL: Bacterial Biotransformation

>  <COMPOUND>
OC(c1cc(C(F)(F)F)nc2c(C(F)(F)F)cccc12)C1CCCCN1 (stereo not given)

>  <REPORTED>
Compound NOT metabolized

$$$$
>  <COMPOUND>
CNCC[C@H](Oc1cccc2ccccc12)c1cccs1

>  <REPORTED>
Compound metabolized

$$$$
>  <COMPOUND>
CC1Cc2ccccc2N1NC(=O)c1ccc(Cl)c(S(N)(=O)=O)c1 (stereo not given) [INDAPAMIDE]

>  <REPORTED>
Compound NOT metabolized

$$$$
>  <COMPOUND>
COc1ccccc1OCCNCC(O)COc1cccc2[nH]c3ccccc3c12 (stereo not given)

>  <REPORTED>
Compound metabolized

$$$$
>  <COMPOUND>
CCCCCNC(=N)N/N=C/c1c[nH]c2ccc(OC)cc12.O=C(O)/C=C\C(=O)O [TEGASEROD MALEATE]

>  <REPORTED>
Compound NOT metabolized

$$$$

====

TEST_CONTEXT: human gut metagenome, 24 h, 2 µM

>  <MOLECULE>
CC[C@@]1(O)C(=O)OCc2c1cc1n(c2=O)Cc2cc3c(CN(C)C)c(O)ccc3nc2-1

>  <Bacterial Biotransformation>
Compound NOT metabolized

$$$$
>  <MOLECULE>
N[C@@H](Cc1ccc(N(CCCl)CCCl)cc1)C(=O)O

>  <Bacterial Biotransformation>
Compound metabolized

$$$$
>  <MOLECULE>
COc1ccc([C@@H]2Sc3ccccc3N(CCN(C)C)C(=O)[C@@H]2OC(C)=O)cc1

>  <Bacterial Biotransformation>
Compound metabolized

$$$$
>  <MOLECULE>
CN1CCC(OC(c2ccccc2)c2ccccc2)CC1

>  <Bacterial Biotransformation>
Compound NOT metabolized

$$$$
>  <MOLECULE>
O=C(O)c1cc(/N=N/c2ccc(S(=O)(=O)Nc3ccccn3)cc2)ccc1O

>  <Bacterial Biotransformation>
Compound metabolized

$$$$
>  <MOLECULE>
COC1=C(OC)C(=O)C(CCCCCCCCCCO)=C(C)C1=O

>  <Bacterial Biotransformation>
Compound metabolized

$$$$
>  <MOLECULE>
CCN(CC)CCNC(=O)c1cc(S(C)(=O)=O)ccc1OC [TIAPRIDE]

>  <Bacterial Biotransformation>
Compound NOT metabolized

$$$$

====

PROTOCOL_SUMMARY: The drug is tested on WLS-073 corresponding to human gut metagenome with ENA study accession number: PRJEB37062 and ENA sample accession number: ERS12561749 for biotransformation under anaerobic condition. The drug concentrations were measured over 9 timepoints collected between 0 and 24 hours of incubation by liquid-chromatography-coupled mass spectrometry (LC–MS)
TEST_CONTEXT: 2 µM
READOUT_LABEL: Bacterial Biotransformation

>  <COMPOUND>
CN1CCC(OC(c2ccccc2)c2ccccc2)CC1

>  <REPORTED>
Compound NOT metabolized

$$$$
>  <COMPOUND>
Nc1nnc(-c2cccc(Cl)c2Cl)c(N)n1 [LAMOTRIGINE]

>  <REPORTED>
Compound NOT metabolized

$$$$
>  <COMPOUND>
O=C([O-])C[C@H](O)C[C@H](O)/C=C/c1c(C2CC2)nc2ccccc2c1-c1ccc(F)cc1.O=C([O-])C[C@H](O)C[C@H](O)/C=C/c1c(C2CC2)nc2ccccc2c1-c1ccc(F)cc1.[Ca+2] [PITAVASTATIN CALCIUM]

>  <REPORTED>
Compound metabolized

$$$$
>  <COMPOUND>
CCOc1ccc2nc(S(N)(=O)=O)sc2c1 [ETHOXZOLAMIDE]

>  <REPORTED>
Compound NOT metabolized

$$$$
>  <COMPOUND>
CCc1cccc2c3c([nH]c12)C(CC)(CC(=O)O)OCC3 (stereo not drawn) [ETODOLAC]

>  <REPORTED>
Compound NOT metabolized

$$$$
>  <COMPOUND>
C[C@]12C=CC(=O)C=C1CC[C@@H]1[C@@H]2C(=O)C[C@@]2(C)[C@H]1CC[C@]2(O)C(=O)CO [PREDNISONE]

>  <REPORTED>
Compound metabolized

$$$$
>  <COMPOUND>
CC(C)(C)NC[C@H](O)COc1nsnc1N1CCOCC1.O=C(O)/C=C\C(=O)O [TIMOLOL MALEATE]

>  <REPORTED>
Compound NOT metabolized

$$$$
>  <COMPOUND>
O=C1CC2(CCCC2)CC(=O)N1CCCCN1CCN(c2ncccn2)CC1 [BUSPIRONE]

>  <REPORTED>
Compound NOT metabolized

$$$$

====

PROTOCOL_SUMMARY: The drug is tested on Z-021 corresponding to metagenome with ENA study accession number: PRJEB37062 and ENA sample accession number: ERS12561820 for biotransformation under anaerobic condition. The drug concentrations were measured over 9 timepoints collected between 0 and 24 hours of incubation by liquid-chromatography-coupled mass spectrometry (LC–MS)
TEST_CONTEXT: 2 µM
READOUT_LABEL: Bacterial Biotransformation

>  <COMPOUND>
Clc1cccc(Cl)c1N=C1NCCN1

>  <READOUT_LABEL>
Bacterial Biotransformation

>  <REPORTED>
Compound NOT metabolized

$$$$
>  <COMPOUND>
CN1CCC(=C2c3ccccc3CC(=O)c3sccc32)CC1.O=C(O)/C=C/C(=O)O [KETOTIFEN FUMARATE]

>  <READOUT_LABEL>
Bacterial Biotransformation

>  <REPORTED>
Compound NOT metabolized

$$$$
>  <COMPOUND>
Br.COc1ccc2c(c1)[C@]13CCCC[C@@H]1[C@H](C2)N(C)CC3.O [DEXTROMETHORPHAN HYDROBROMIDE]

>  <READOUT_LABEL>
Bacterial Biotransformation

>  <REPORTED>
Compound metabolized

$$$$
>  <COMPOUND>
N#Cc1ccc2[nH]cc(CCCCN3CCN(c4ccc5oc(C(N)=O)cc5c4)CC3)c2c1

>  <READOUT_LABEL>
Bacterial Biotransformation

>  <REPORTED>
Compound metabolized

$$$$
>  <COMPOUND>
CN(C)C(=O)Oc1cc(OC(=O)N(C)C)cc(C(O)CNC(C)(C)C)c1 (centres undefined)

>  <READOUT_LABEL>
Bacterial Biotransformation

>  <REPORTED>
Compound metabolized

$$$$
>  <COMPOUND>
CCCCCNC(=N)N/N=C/c1c[nH]c2ccc(OC)cc12.O=C(O)/C=C\C(=O)O [TEGASEROD MALEATE]

>  <READOUT_LABEL>
Bacterial Biotransformation

>  <REPORTED>
Compound NOT metabolized

$$$$
>  <COMPOUND>
CC(C)c1c(CN(C)C(C)Cc2ccccc2)n(C)n(-c2ccccc2)c1=O (centres undefined)

>  <READOUT_LABEL>
Bacterial Biotransformation

>  <REPORTED>
Compound metabolized

$$$$
>  <COMPOUND>
CC(CCc1ccccc1)NCC(O)c1ccc(O)c(C(N)=O)c1 (centres undefined)

>  <READOUT_LABEL>
Bacterial Biotransformation

>  <REPORTED>
Compound NOT metabolized

$$$$
>  <COMPOUND>
CCN(CC)CCNC(=O)c1ccc(NC(C)=O)cc1 [ACECAINIDE]

>  <READOUT_LABEL>
Bacterial Biotransformation

>  <REPORTED>
Compound NOT metabolized

$$$$
>  <COMPOUND>
CCCN1C[C@H](CSC)C[C@@H]2c3cccc4[nH]cc(c34)C[C@H]21.CS(=O)(=O)O [PERGOLIDE MESYLATE]

>  <READOUT_LABEL>
Bacterial Biotransformation

>  <REPORTED>
Compound metabolized

$$$$
>  <COMPOUND>
CCS(=O)(=O)CCn1c([N+](=O)[O-])cnc1C

>  <READOUT_LABEL>
Bacterial Biotransformation

>  <REPORTED>
Compound metabolized

$$$$
>  <COMPOUND>
COc1ccc(/C=C/C(=O)Nc2ccccc2C(=O)O)cc1OC

>  <READOUT_LABEL>
Bacterial Biotransformation

>  <REPORTED>
Compound metabolized

$$$$
>  <COMPOUND>
O=P1(N(CCCl)CCCl)NCCCO1 (centres undefined) [CYCLOPHOSPHAMIDE ANHYDROUS]

>  <READOUT_LABEL>
Bacterial Biotransformation

>  <REPORTED>
Compound NOT metabolized

$$$$
>  <COMPOUND>
Nc1nc(N)nc(-c2cc(Cl)ccc2Cl)n1.O=C(O)/C=C\C(=O)O [IRSOGLADINE MALEATE]

>  <READOUT_LABEL>
Bacterial Biotransformation

>  <REPORTED>
Compound NOT metabolized

$$$$
>  <COMPOUND>
CN1[C@@H]2CC[C@H]1C[C@@H](OC(=O)[C@H](CO)c1ccccc1)C2

>  <READOUT_LABEL>
Bacterial Biotransformation

>  <REPORTED>
Compound NOT metabolized

$$$$
>  <COMPOUND>
CC(NC(C)(C)C)C(=O)c1cccc(Cl)c1 (centres undefined)

>  <READOUT_LABEL>
Bacterial Biotransformation

>  <REPORTED>
Compound NOT metabolized

$$$$
>  <COMPOUND>
CC(=O)Nc1ccc(OC(C)=O)cc1 [DIACETAMATE]

>  <READOUT_LABEL>
Bacterial Biotransformation

>  <REPORTED>
Compound metabolized

$$$$
>  <COMPOUND>
O=C1CN2Cc3c(ccc(Cl)c3Cl)N=C2N1 [ANAGRELIDE]

>  <READOUT_LABEL>
Bacterial Biotransformation

>  <REPORTED>
Compound NOT metabolized

$$$$
>  <COMPOUND>
COc1cc(C(=O)NCc2ccc(OCCN(C)C)cc2)cc(OC)c1OC [TRIMETHOBENZAMIDE]

>  <READOUT_LABEL>
Bacterial Biotransformation

>  <REPORTED>
Compound NOT metabolized

$$$$
